MEASURED ON: Nav1.7 (or SCN9A) channel (Homo sapiens)
Construct: expressed in transfected cells
Sequence (Q15858 whole entry): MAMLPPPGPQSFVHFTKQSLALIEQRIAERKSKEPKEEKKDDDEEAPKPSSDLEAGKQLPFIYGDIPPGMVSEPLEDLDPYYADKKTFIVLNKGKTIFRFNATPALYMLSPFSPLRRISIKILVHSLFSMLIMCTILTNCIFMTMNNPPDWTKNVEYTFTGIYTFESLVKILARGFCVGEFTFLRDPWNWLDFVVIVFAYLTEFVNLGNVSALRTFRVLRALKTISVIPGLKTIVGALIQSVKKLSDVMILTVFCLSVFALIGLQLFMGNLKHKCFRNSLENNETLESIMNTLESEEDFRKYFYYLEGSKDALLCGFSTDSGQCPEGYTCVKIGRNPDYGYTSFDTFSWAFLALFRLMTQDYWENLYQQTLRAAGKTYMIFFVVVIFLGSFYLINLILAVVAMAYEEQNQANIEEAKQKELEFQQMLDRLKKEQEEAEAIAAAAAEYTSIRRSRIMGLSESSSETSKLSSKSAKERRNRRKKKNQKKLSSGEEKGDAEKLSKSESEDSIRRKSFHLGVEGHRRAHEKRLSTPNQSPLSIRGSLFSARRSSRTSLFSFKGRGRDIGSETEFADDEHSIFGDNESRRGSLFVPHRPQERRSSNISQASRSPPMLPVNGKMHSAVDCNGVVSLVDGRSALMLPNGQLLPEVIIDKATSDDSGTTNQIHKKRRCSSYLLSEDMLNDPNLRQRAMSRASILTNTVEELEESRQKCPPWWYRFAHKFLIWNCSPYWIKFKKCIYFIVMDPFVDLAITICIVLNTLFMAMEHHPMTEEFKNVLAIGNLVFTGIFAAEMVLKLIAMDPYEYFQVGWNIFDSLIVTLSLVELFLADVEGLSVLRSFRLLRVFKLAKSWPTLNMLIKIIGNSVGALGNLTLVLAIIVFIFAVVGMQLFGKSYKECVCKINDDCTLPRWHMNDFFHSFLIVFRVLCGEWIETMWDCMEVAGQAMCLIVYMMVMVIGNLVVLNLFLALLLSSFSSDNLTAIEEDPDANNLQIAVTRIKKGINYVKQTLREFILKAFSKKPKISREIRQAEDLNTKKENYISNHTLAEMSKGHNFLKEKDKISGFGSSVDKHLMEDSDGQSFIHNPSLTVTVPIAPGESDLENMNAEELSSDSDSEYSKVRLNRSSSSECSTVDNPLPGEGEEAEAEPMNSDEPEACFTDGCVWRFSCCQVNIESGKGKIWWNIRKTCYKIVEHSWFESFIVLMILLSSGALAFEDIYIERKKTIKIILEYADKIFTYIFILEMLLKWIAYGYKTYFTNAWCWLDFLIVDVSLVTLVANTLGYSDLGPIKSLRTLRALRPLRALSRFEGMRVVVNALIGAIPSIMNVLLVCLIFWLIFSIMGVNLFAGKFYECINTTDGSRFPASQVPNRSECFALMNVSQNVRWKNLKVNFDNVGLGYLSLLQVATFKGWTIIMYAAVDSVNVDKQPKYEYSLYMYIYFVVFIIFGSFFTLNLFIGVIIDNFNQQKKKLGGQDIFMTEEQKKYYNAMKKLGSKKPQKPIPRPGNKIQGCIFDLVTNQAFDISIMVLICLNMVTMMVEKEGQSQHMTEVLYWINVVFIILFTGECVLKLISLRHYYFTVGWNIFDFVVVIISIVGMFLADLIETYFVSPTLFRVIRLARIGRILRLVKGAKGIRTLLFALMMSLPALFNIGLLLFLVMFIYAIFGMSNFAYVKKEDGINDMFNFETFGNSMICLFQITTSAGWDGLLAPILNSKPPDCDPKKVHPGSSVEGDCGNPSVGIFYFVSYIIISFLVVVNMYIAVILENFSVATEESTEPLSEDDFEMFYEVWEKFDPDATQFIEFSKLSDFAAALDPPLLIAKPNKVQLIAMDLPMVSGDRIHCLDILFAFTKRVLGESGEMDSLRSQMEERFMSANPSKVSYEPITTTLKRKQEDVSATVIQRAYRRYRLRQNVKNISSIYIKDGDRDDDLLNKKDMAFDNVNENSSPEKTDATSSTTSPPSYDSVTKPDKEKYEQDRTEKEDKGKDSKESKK
TEST DESCRIPTION: Nav1.7 (hSCN9A) block in HEK cells, PatchXpress 7000 automated electrophysiology, estimated IC50 (EIC50)
Type: cell-based
TEST CONDITIONS: PatchXpress assay; HEK cells stably transfected with hSCN9A, voltage-clamped at V1/2 of inactivation
pIC50: −log10 of the molar value.
ATTRIBUTE MEASURED: pIC50

COMPOUND	pIC50
CS(=O)(=O)NC(=O)c1cc(F)c(Oc2cnc(N[C@H]3CC[C@H](F)C3)c(Cl)c2)cc1F	6.18
CS(=O)(=O)NC(=O)c1cc(Cl)c(Oc2cnc(C3CC3)c(C(F)(F)F)c2)cc1F	7.31
CS(=O)(=O)NC(=O)c1cc(F)c(Oc2cnc(N3CC(F)(F)C3)c(Cl)c2)cc1F	6.13
CS(=O)(=O)NC(=O)c1cc(Cl)c(Oc2cnc(OC3COC3)c(Cl)c2)cc1F	6.05
CS(=O)(=O)NC(=O)c1cc(Cl)c(Oc2cnc(OC(C(F)(F)F)C(F)(F)F)c(Cl)c2)cc1F	7.82

[P] CN(c1ncc(Oc2cc(F)c(C(=O)NS(C)(=O)=O)cc2F)cc1Cl)C1CCC1
[Q] CC(C)Oc1ccc(Oc2cc(F)c(C(=O)NS(C)(=O)=O)cc2F)cn1
[R] CS(=O)(=O)NC(=O)c1cc(Cl)c(Oc2cnc(OCC(F)(F)F)c(Cl)c2)cc1F
[S] CS(=O)(=O)NC(=O)c1cc(F)c(Oc2cnc(OCC3CC(F)(F)C3)c(Cl)c2)cc1F
[T] CS(=O)(=O)NC(=O)c1cc(F)c(Oc2cnc(N3C[C@@H](F)[C@H](F)C3)c(Cl)c2)cc1F
INPUT: Put the items in sequence by pIC50, from largest down. Arrange the labels as the request states and list them.
OUTPUT: R, S, P, T, Q

[P] [2H]C([2H])([2H])C([2H])(Oc1ncc(Oc2cc(F)c(C(=O)NS(C)(=O)=O)cc2F)cc1Cl)C([2H])([2H])[2H]
[Q] COCC1CCCN1c1ncc(Oc2cc(F)c(C(=O)NS(C)(=O)=O)cc2F)cc1Cl (centres unmarked)
[R] CS(=O)(=O)NC(=O)c1cc(F)c(Oc2cnc(OCC(F)(F)C(F)(F)F)c(Cl)c2)cc1F
[S] CC(C)Oc1ncc(Oc2cc(F)c(C(=O)NS(C)(=O)=O)cc2Cl)cc1C#N
[T] CN1CCC(Oc2ncc(Oc3cc(F)c(C(=O)NS(C)(=O)=O)cc3F)cc2Cl)CC1
INPUT: Rank ascending by pIC50. Arrange the labels as the request states and list them.
OUTPUT: T, Q, S, P, R

[a] [2H]C(C)(C)Oc1ncc(Oc2cc(F)c(C(=O)NS(C)(=O)=O)cc2Cl)cc1Cl (single isomer, unassigned)
[b] CC(C)(C)Oc1ncc(Oc2cc(F)c(C(=O)NS(C)(=O)=O)cc2F)cc1Cl
INPUT: Quick check, higher pIC50 between a and b ? Your choice should be expressed through its label.
OUTPUT: b
